# credit: the supplement of paper PMC10567573

# maps each entry to its protein stability index
B1: CAMK2D (parent)
chain: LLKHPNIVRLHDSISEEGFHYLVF

# Variants of: B1
# Protocol details: protein stability index of a GFP-peptide fusion (GPS, HEK-293T) (PSI 1-6); higher = more stable;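 note: lentivirally expressed fusions sorted by FACS into six bins by GFP to DsRed ratio, PSI derived from sequencing read proportions per bin multiplied by bin number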
# Test context: c terminus: a fixed tail appended
The answer should be written as a number, with no unit following it.

| Mutation descriptor | protein stability index |
| --- | --- |
| P5I | 3.47 |
| I7R | 2.02 |
| S15F | 2.56 |
| K3G | 2.04 |

Challenge: State, in one line, measured protein stability index of H20L
Response given: 2.31

Challenge: State, in one line, measured protein stability index of K3C
Response given: 3.78

Challenge: State, in one line, measured protein stability index of H11I
Response given: 2.7
